Values were extracted from patent US8710233B2.

Study System: VR1/TRPV1 receptor (Homo sapiens)
Run Description: IC50 (human) after pH stimulus
Format: cell-based
Experimental Setup: table 4
Exercise: for every item that follows, state its recorded pIC50.
Just so you know, pIC50 here is -log10 of the concentration in molar units; reply with that number alone.

Ask: I'm curious: which pIC50 was measured for CC(C(=O)NCc1ccc(C(F)(F)F)nc1N1CC=CCC1)c1ccc(NS(C)(=O)=O)c(F)c1 (stereo not shown) tested on VR1/TRPV1 receptor (Homo sapiens)?
Result: 7.92

Ask: Find pIC50 (VR1/TRPV1 receptor (Homo sapiens)) for the entry CCCCCc1nc(C(F)(F)F)ccc1CNC(=O)[C@@H](C)c1ccc(NS(C)(=O)=O)c(F)c1
Result: 6.84

Ask: Record CCCOc1nc(C(F)(F)F)ccc1CNC(=O)C(C)c1ccc(NS(C)(=O)=O)c(F)c1 (stereo not shown) : what is its pIC50 with VR1/TRPV1 receptor (Homo sapiens)?
Result: 7.05

Ask: Quick check: pIC50 on VR1/TRPV1 receptor (Homo sapiens), item CC(C(=O)NCc1ccc(C(F)(F)Cl)nc1OCc1cccnc1)c1ccc(NS(C)(=O)=O)c(F)c1 (stereo not shown) ?
Result: 5.97

* * *

Study System: vanilloid receptor (VR1) (Homo sapiens)
Construct: expressed in transfected cells; host or cells: CHO K1 cells (ECACC), stably transfected
Sequence (Q8NER1 whole entry): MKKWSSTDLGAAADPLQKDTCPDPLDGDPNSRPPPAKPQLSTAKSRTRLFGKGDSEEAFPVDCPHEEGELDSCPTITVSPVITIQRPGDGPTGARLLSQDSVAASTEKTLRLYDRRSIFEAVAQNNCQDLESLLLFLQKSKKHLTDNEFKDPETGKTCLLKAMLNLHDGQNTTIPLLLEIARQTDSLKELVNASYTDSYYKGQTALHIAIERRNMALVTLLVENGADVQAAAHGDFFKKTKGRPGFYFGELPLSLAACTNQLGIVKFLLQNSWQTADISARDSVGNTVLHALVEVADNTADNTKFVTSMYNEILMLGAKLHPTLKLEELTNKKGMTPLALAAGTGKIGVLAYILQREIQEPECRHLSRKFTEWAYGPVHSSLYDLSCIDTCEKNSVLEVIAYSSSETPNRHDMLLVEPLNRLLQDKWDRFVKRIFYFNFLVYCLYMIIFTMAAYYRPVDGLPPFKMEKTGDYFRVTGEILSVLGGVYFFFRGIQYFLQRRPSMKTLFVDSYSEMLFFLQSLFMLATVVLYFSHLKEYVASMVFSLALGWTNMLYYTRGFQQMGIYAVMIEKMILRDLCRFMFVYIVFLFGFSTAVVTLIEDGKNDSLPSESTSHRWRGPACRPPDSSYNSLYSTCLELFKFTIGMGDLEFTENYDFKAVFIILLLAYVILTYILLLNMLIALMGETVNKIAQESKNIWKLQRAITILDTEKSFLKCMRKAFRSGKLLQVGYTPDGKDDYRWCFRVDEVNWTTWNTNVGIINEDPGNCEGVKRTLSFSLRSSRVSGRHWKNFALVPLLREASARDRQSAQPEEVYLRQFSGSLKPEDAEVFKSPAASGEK
Run Description: FLIPR Ca2+ influx assay on CHO K1 cells transfected with the VR1 gene (pharmacological method II)
Assay type: cell-based
Experimental Setup: table 4; capsaicin; read-out: Ki (human) Cap.
Property Measured: pKi
By convention, pKi is the negative base-10 log of a molar concentration.

Ask: Entry CC(C(=O)NCc1ccc(C(F)(F)F)nc1N1CCC(OC(=O)C(C)(C)C)CC1)c1ccc(NS(C)(=O)=O)c(F)c1 (stereo not shown) has what pKi?
Result: 8.70

Ask: Any idea what pKi was measured for CCCOc1nc(C(C)(C)C)ccc1CNC(=O)C(C)c1ccc(NS(C)(=O)=O)c(F)c1 (stereo not shown) ?
Result: 8.77

Ask: Fill in: pKi of CC1CCN(c2nc(C(F)(F)F)ccc2CCNC(=O)C(C)c2ccc(NS(C)(=O)=O)c(F)c2)CC1 (stereo not shown) is ___
Result: 7.26

Ask: What value of pKi has been recorded for this entry: CC(C)CC(CC(C)C)Oc1nc(C(F)(F)F)ccc1CNC(=O)C(C)c1ccc(NS(C)(=O)=O)c(F)c1 (stereo not shown)
Result: 9.15

Ask: Need pKi, item CC(C(=O)NCc1ccc(C(C)(C)C)nc1OC1CCCCC1)c1ccc(NS(C)(=O)=O)c(F)c1 (stereo not shown)
Result: 8.60

Ask: Which value of pKi has been reported for Cc1cc(C(C)C(=O)NCc2ccc(C(F)(F)F)nc2OCc2ccccc2)ccc1NS(C)(=O)=O (stereo not shown) in the records?
Result: 8.40

Ask: Given CC(C(=O)NCc1ccc(C(F)(F)F)nc1N1CCN(c2ncccc2C(F)(F)F)CC1)c1ccc(NS(C)(=O)=O)c(F)c1 (stereo not shown) [Example 213] , state its recorded pKi.
Result: 8.55

Ask: Fill blank: measured pKi of the compound CCCCCCOc1nc(C(F)(F)F)ccc1CNC(=O)C(C)c1ccc(NS(C)(=O)=O)c(C)c1 (stereo not shown) is ____.
Result: 9.22

Ask: Item under review: C[C@H](C(=O)NCc1ccc(C(F)(F)F)nc1-c1ccc(F)c(Cl)c1)c1ccc(NS(C)(=O)=O)c(F)c1 . Reported pKi?
Result: 9.15

Ask: Which value of pKi has been reported for CC(C(=O)NCc1ccc(C(F)(F)F)nc1N1CCN(C)CC1)c1ccc(NS(C)(=O)=O)c(F)c1 (stereo not shown) in the records?
Result: 6.84

Ask: Data request, read-out pKi, for CC(C(=O)NCc1ccc(C(C)(C)C)cc1OC1CCCCC1)c1ccc(NS(C)(=O)=O)c(F)c1 (stereo not shown)
Result: 8.09

Ask: Given the compound CC(C(=O)NCc1ccc(C(F)(F)F)nc1N1CCC2(CC1)CC(c1ccccc1)=NO2)c1ccc(NS(C)(=O)=O)c(F)c1 (stereo not shown) , what is its reported pKi?
Result: 8.21

Ask: Record request: pKi value, item CC(C(=O)NCc1ccc(C(F)(F)F)nc1N(C)c1ccccc1)c1ccc(NS(C)(=O)=O)c(F)c1 (stereo not shown)
Result: 9.05

Ask: So what does the record say about pKi for CC(C(=O)NCc1ccc(C(F)(F)F)nc1N1CCN(c2ccccc2F)CC1)c1ccc(NS(C)(=O)=O)c(F)c1 (stereo not shown) ?
Result: 8.62

Ask: Entry Cc1ccc(N2CCN(c3cc(C(F)(F)F)ccc3CNC(=O)C(C)c3ccc(NS(C)(=O)=O)c(F)c3)CC2)cc1 (stereo not shown) has what pKi?
Result: 9.15

Ask: For the compound CC(=O)C1(c2ccccc2)CCN(c2nc(C(F)(F)F)ccc2CNC(=O)C(C)c2ccc(NS(C)(=O)=O)c(F)c2)CC1 (stereo not shown) , what pKi is on record?
Result: 9.15

Ask: Need pKi of CC(C(=O)NCc1ccc(C(F)(F)F)nc1NCC1CCN(C(=O)OC(C)(C)C)CC1)c1ccc(NS(C)(=O)=O)c(F)c1 (stereo not shown) , thanks.
Result: 7.71

Ask: What value of pKi has been reported for the following compound? Cc1cc(C(C)C(=O)NCc2ccc(C(F)(F)F)nc2N2CCC(C(F)(F)F)CC2)ccc1NS(C)(=O)=O (stereo not shown)
Result: 8.96

Ask: Which pKi reading was recorded for the compound CC(C(=O)NCc1ccc(C(F)(F)F)nc1N1CCN(c2ccc(F)cc2)CC1)c1ccc(NS(C)(=O)=O)c(F)c1 (stereo not shown) ?
Result: 8.96

Ask: Tell me the measured pKi of CC(C(=O)NCc1ccc(C(C)(C)C)nc1OC1CCCC1)c1ccc(NS(C)(=O)=O)c(F)c1 (stereo not shown) , please.
Result: 8.82

Ask: Query (compound): CC(C(=O)NCc1ccc(C(F)(F)F)cc1OC1CCCC1)c1ccc(NS(C)(=O)=O)c(F)c1 (stereo not shown) ; field requested: pKi
Result: 9.22

Ask: Could you tell me which pKi is on file for COc1ccc(N2CCN(c3nc(C(F)(F)F)ccc3CNC(=O)C(C)c3ccc(NS(C)(=O)=O)c(F)c3)CC2)cc1 (stereo not shown) ?
Result: 8.60

Ask: Fill in: pKi of CC(C(=O)NCc1ccc(C(F)(F)F)nc1N1C[C@@H](C)O[C@@H](C)C1)c1ccc(NS(C)(=O)=O)c(F)c1 (stereo partly shown) is ___
Result: 8.84

Ask: Look up pKi for this compound: CC1CCN(c2nc(C(F)(F)Cl)ccc2CNC(=O)C(C)c2ccc(NS(C)(=O)=O)c(F)c2)CC1 (stereo not shown)
Result: 9.52

Ask: What value of pKi has been reported for the following compound? Cc1cccc(N2CCN(c3nc(C(F)(F)F)ccc3CNC(=O)C(C)c3ccc(NS(C)(=O)=O)c(F)c3)CC2)c1 (stereo not shown)
Result: 8.47

Ask: Recorded pKi for CC(C(=O)NCc1ccc(C(F)(F)F)nc1N1CCC(CN(C)C)(c2ccccc2)CC1)c1ccc(NS(C)(=O)=O)c(F)c1 (stereo not shown) , please?
Result: 7.81

Ask: State the recorded pKi for this entry: CC(C(=O)NCc1ccc(C(F)(F)F)cc1OC1CCCCC1)c1ccc(NS(C)(=O)=O)c(F)c1 (stereo not shown)
Result: 9.15

Ask: Given CC(C(=O)NCc1ccc(C(F)(F)F)nc1N1CCCCCCC1)c1ccc(NS(C)(=O)=O)c(F)c1 (stereo not shown) , state its recorded pKi.
Result: 9.15
